Data provenance: paper PMC6499816

targetEntity: GABARAP-L2 (recombinant, BLI) (human, UniProt P60520 1-117)
Sequence (P60520 whole entry): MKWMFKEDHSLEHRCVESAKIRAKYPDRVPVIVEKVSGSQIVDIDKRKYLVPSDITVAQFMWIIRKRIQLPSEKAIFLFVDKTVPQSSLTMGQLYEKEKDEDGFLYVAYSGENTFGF
assayProcedure: BLI
Ends that are not written are not given here.
experimentalReadout: Kd (nM)
Unit nM implied. Number only.

INSERT INTO results (binder, assayvalue) VALUES
  ('GGSSGNTHDDFVMIDFKPAFSKDD (also: biotin, position not given here) [ATG13 LIR peptide (biotinylated, BLI)]', 3100);

Query binder follows.
Given the entry SKDSSCDTDDFVMVPAQFPGDLVA (also: biotin, position not given here) [ULK1 LIR peptide (biotinylated, BLI)] , report its measured Kd.
530
